Values were extracted from PubChem BioAssay.

methodDescription: probe aNog binding to arrayed compounds – biochemical, biotinylated probe, 635/667 nm fluorescence, primary screen (AID 1115);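 note: probe is biotinylated aNog protein used at 0.15 µg/mL for 1 h at 4 C; z-score combines 667 nm fluorescence of each spot with its signal to noise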
conditionContext: small-molecule microarray, higher = more signal

| compound | composite z-score |
| --- | --- |
| C=CC[C@]1(C(=O)N2CCOCC2)COC(c2ccc(OCCCO)cc2)=N1 | 1.11 |
| O=C1CS(=O)(=O)C(c2cccc([N+](=O)[O-])c2)N1c1ccccc1 (stereo unspecified) | -0.217 |
| CN(C)C(=O)[C@@]1(Cc2ccccc2)N=C(c2ccc(OCCCO)cc2)O[C@H]1c1ccccc1 | -0.332 |
| COc1cc2c(cc1O)C(C1CC1)N(Cc1cccc(OC(F)(F)F)c1)CC2 (stereo unspecified) | -0.147 |
| Cc1ccc(F)cc1S(=O)(=O)N[C@@H]1CCN(Cc2ccc(Br)cc2)C1 | -0.252 |
| C=CCNC(=O)[C@@H]1[C@H]2C(=O)O[C@H](c3ccccc3)[C@H](c3ccccc3)N2[C@H](c2ccccc2OCCO)[C@@]12C(=O)Nc1ccc(C#CCCO)cc12 | -0.0965 |
| CCOC(=O)C[C@H]1[C@H](OC(=O)c2ccc(C(=O)c3ccccc3)cc2)[C@@H](NC(=O)c2ccc(-c3ccccc3)cc2)c2cc(OCCCO)ccc2N1C(=O)Cc1ccc(OC)cc1 | -0.468 |
| COc1ccc(CCNC(=O)[C@@]2(c3ccc([N+](=O)[O-])cc3)CC(=O)N(C3CCCCC3)[C@@H]2c2ccc(CO)cc2)cc1 | -0.203 |
| COc1cc2c(cc1O)C(C1CC1)N(C)CC2 (stereo unspecified) | -0.139 |
| CCCCCN1CC=CC23O[C@@H]4/C=C\CCC(C)OC(=O)C4[C@H]2C(=O)N(C(CO)C(C)C)[C@@H]3C1=O (stereo partly specified) | -0.463 |
| CS(=O)(=O)CCOC(=O)C1=CC(c2ccc(CO)cc2)=CC(C2CC2)N(Cc2sc3ccccc3c2Cl)C=C1C(=O)OCCS(C)(=O)=O (stereo unspecified) | 0.611 |
| CCOC(=O)C[C@H]1[C@H](OC(=O)c2ccc(C(=O)c3ccccc3)cc2)[C@@H](NC(=O)c2ccc3ccccc3n2)c2cc(OCCCO)ccc2N1C(=O)Cc1ccc(OC)cc1 | -0.259 |
| NC(=O)NCC#Cc1ccc2c(c1)[C@]1(C(=O)N2)[C@H](C(=O)N2CCN(c3ncccn3)CC2)[C@H]2C(=O)O[C@H](c3ccccc3)[C@H](c3ccccc3)N2[C@@H]1c1ccc(O)cc1 | -0.524 |
| CCOC(=O)C1=C[C@@H](C(C)C)N(S(=O)(=O)c2ccc(C)cc2)[C@H]1c1ccc(C(F)(F)F)cc1 | 0.868 |
| COc1ccc(CCNC(=O)[C@@H]2c3ccccc3C(=O)N(C3CCCCC3)[C@H]2c2ccc(CO)cc2)cc1 | -0.402 |
| COC(=O)[C@@H]1N=C(c2ccc(OCCCO)cc2)O[C@@H]1C | -0.356 |
